- MEASUREMENT PROTOCOL: Pharmacokinetics of aminoglycosides in the rat
- TEST CONTEXT: quadriceps, sc, 10 mg/kg
RECORDED METRIC: concentration at 24 h

I have this compound here, CN[C@@H]1[C@@H](O)[C@@H](O[C@@H]2[C@@H](O)[C@H](O[C@H]3O[C@H](CO)[C@@H](O)[C@H](O)[C@H]3N)[C@@H](N)C[C@H]2N)OC[C@]1(C)O (stereo in doubt) [Gentamicin X2, gentamicin X2] , and I need its recorded concentration at 24 h.
~40 ng/g

* * *

- MEASUREMENT PROTOCOL: Pharmacokinetics of aminoglycosides in the rat
- TEST CONTEXT: in vivo, sc, 10 mg/kg, levels in the quadriceps, 10 mg/kg subcutaneous, 24 hours after dosing
RECORDED METRIC: concentration at 24 h

Fill in the blank: the reported concentration at 24 h of CN[C@@H]1[C@@H](O)[C@@H](O[C@@H]2[C@@H](O)[C@H](O[C@H]3O[C@H]([C@@H](C)O)[C@@H](O)[C@H](O)[C@H]3N)[C@@H](N)C[C@H]2N)OC[C@]1(C)O [G418, reference compound] is ____.
~40 ng/g

* * *

Measured fLuc-190-NS MaxFold, listed per entry for reference.
- Tested on: fLuc mRNA harboring a UGA nonsense mutation at codon 190 (fLuc-190-NS)
- Format: biochemical, rabbit
- TEST CONTEXT: AVERAGE (S1 File)
Field format: numeric only.

See these solved cases before continuing.
* CN[C@@H]1[C@@H](O)[C@@H](O[C@@H]2[C@@H](O)[C@H](O[C@H]3O[C@H]([C@@H](C)O)[C@@H](O)[C@H](O)[C@H]3N)[C@@H](N)C[C@H]2N)OC[C@]1(C)O [G418, reference compound] | 53.0
* CN[C@@H]1[C@@H](O)[C@@H](O[C@@H]2[C@@H](O)[C@H](O[C@H]3O[C@H](CO)[C@@H](O)[C@H](O)[C@H]3N)[C@@H](N)C[C@H]2N)OC[C@H]1O [Gentamicin A, gentamicin A] | 6.7
* CN[C@@H]1[C@@H](O)[C@@H](O[C@@H]2[C@@H](O)[C@H](O[C@H]3O[C@H]([C@@H](C)NC)CC[C@H]3N)[C@@H](N)C[C@H]2N)OC[C@]1(C)O [Gentamicin C1, gentamicin C1] | 18.9
* CN[C@@H]1[C@@H](O)[C@@H](O[C@@H]2[C@@H](O)[C@H](O[C@H]3O[C@H]([C@H](C)N)CC[C@H]3N)[C@@H](N)C[C@H]2N)OC[C@]1(C)O [Gentamicin C2a, gentamicin C2a] | 32.1

Next:
Dear colleague, I am looking for the recorded fLuc-190-NS MaxFold of the following compound: C[C@@H](O)C1O[C@H](O[C@@H]2C(N)C[C@@H](NC(=O)[C@@H](O)CCN)[C@@H](O)C2O[C@@H]2O[C@H](CN)[C@H](O)C2O)[C@@H](N)C(O)[C@@H]1O (some centres unmarked) [NB84, reference compound]
180.8

* * *

- System: tGFP-CFTR542X-HA-HIS construct (codon 542 UGA) in 293H cells
- MEASUREMENT PROTOCOL: tGFP-542X readthrough assay (HA-HIS MSD immunoassay)
- Format: cell-based, human
- TEST CONTEXT: AVERAGE (S1 File)
Lab note - cut at 400 µM for tGFP-542X EC2X: yes (1) if strictly below, no (0) if not.

Consider the following illustrative entries.
• C[C@@H](O)C1O[C@H](O[C@@H]2C(N)C[C@@H](NC(=O)[C@@H](O)CCN)[C@@H](O)C2O[C@@H]2O[C@H](CN)[C@H](O)C2O)[C@@H](N)C(O)[C@@H]1O (stereo partly shown) [NB84, reference compound] = yes (1)
• CN[C@@H]1[C@@H](O)[C@@H](O[C@@H]2[C@@H](O)[C@H](O[C@H]3O[C@H](CO)[C@@H](O)[C@H](O)[C@H]3N)[C@@H](N)C[C@H]2N)OC[C@H]1O [Gentamicin A, gentamicin A] = yes (1)
• CN[C@@H]1[C@@H](O)[C@@H](O[C@@H]2[C@@H](O)[C@H](O[C@H]3O[C@H]([C@@H](C)NC)CC[C@H]3N)[C@@H](N)C[C@H]2N)OC[C@]1(C)O [Gentamicin C1, gentamicin C1] = no (0)

Strictly below 400 µM in tGFP-542X EC2X? CN[C@@H]1[C@@H](O)[C@@H](O[C@@H]2[C@@H](O)[C@H](O[C@H]3O[C@H]([C@H](C)N)CC[C@H]3N)[C@@H](N)C[C@H]2N)OC[C@]1(C)O [Gentamicin C2a, gentamicin C2a]
no (0)

Decide: tGFP-542X EC2X of CN[C@@H]1[C@@H](O)[C@@H](O[C@@H]2[C@@H](O)[C@H](O[C@H]3O[C@H]([C@@H](C)O)[C@@H](O)[C@H](O)[C@H]3N)[C@@H](N)C[C@H]2N)OC[C@]1(C)O [G418, reference compound] strictly below 400 µM?
yes (1)

Please let me know if CN[C@@H]1[C@@H](O)[C@@H](O[C@@H]2[C@@H](O)[C@H](O[C@H]3O[C@H]([C@@H](C)N)CC[C@H]3N)[C@@H](N)C[C@H]2N)OC[C@]1(C)O [Gentamicin C2, gentamicin C2] shows tGFP-542X EC2X below 400 µM.
yes (1)

Dear colleague, could you confirm whether tGFP-542X EC2X of CN[C@@H]1[C@@H](O)[C@@H](O[C@@H]2[C@@H](O)[C@H](O[C@H]3O[C@H](CO)[C@@H](O)[C@H](O)[C@H]3N)[C@@H](N)C[C@H]2N)OC[C@]1(C)O (stereo in doubt) [Gentamicin X2, gentamicin X2] falls below 400 µM? Thanks.
yes (1)

* * *

- MEASUREMENT PROTOCOL: Cytotoxicity in myoblasts
- TEST CONTEXT: mouse, primary mouse myoblasts, Myoblast (CC50), average ± SD
- Excerpt: When considering compounds for potential readthrough therapy it is important to monitor cellular and animal safety. In order to determine the most promising compounds to further evaluate in in vivo safety, we measured cytotoxicity in two different cell types. We used activated human peripheral blood mononuclear cells (PBMCs) (Table 2 and Fig 2D and 2E). […]
RECORDED METRIC: CC50 (µM)
Enter your answer as a number in µM; do not include the unit.

Query: CC50; subject: CN[C@@H]1[C@@H](O)[C@@H](O[C@@H]2[C@@H](O)[C@H](O[C@H]3O[C@H](CO)[C@@H](O)[C@H](O)[C@H]3N)[C@@H](N)C[C@H]2N)OC[C@]1(C)O (stereo in doubt)
834

* * *

- MEASUREMENT PROTOCOL: Pharmacokinetics of aminoglycosides in the rat
- TEST CONTEXT: in vivo, sc, 10 mg/kg
RECORDED METRIC: half-life

Value lookup for half-life; key = CN[C@@H]1[C@@H](O)[C@@H](O[C@@H]2[C@@H](O)[C@H](O[C@H]3O[C@H]([C@@H](C)O)[C@@H](O)[C@H](O)[C@H]3N)[C@@H](N)C[C@H]2N)OC[C@]1(C)O [G418, reference compound]
1.5 h

* * *

- Test system: tGFP-CFTR542X-HA-HIS construct (codon 542 UGA) in 293H cells
- MEASUREMENT PROTOCOL: tGFP-542X readthrough assay (HA-HIS MSD immunoassay)
- Format: cell-based, human
- TEST CONTEXT: AVERAGE (S1 File)
Rule: tGFP-542X Maxfold below 4 gives 1.0. Equal to or above 4 gives 0.0.

Below, 7 molecules whose answers are already recorded.
• CN[C@@H]1[C@@H](O)[C@@H](O[C@@H]2[C@@H](O)[C@H](O[C@H]3OC(CN)=CC[C@H]3N)[C@@H](N)C[C@H]2N)OC[C@]1(C)O = 1.0
• CN[C@@H]1[C@@H](O)[C@@H](O[C@@H]2[C@@H](O)[C@H](O[C@H]3O[C@H]([C@@H](C)NC)CC[C@H]3N)[C@@H](N)C[C@H]2N)OC[C@]1(C)O = 1.0
• CN[C@@H]1[C@@H](O)[C@@H](O[C@@H]2[C@@H](O)[C@H](O[C@H]3O[C@H]([C@@H](C)N)CC[C@H]3N)[C@@H](N)C[C@H]2N)OC[C@]1(C)O = 0.0
• CN[C@@H]1[C@@H](O)[C@@H](O[C@@H]2[C@@H](O)[C@H](O[C@H]3O[C@H](CO)[C@@H](O)[C@H](O)[C@H]3N)[C@@H](N)C[C@H]2N)OC[C@H]1O = 1.0
• CN[C@@H]1[C@@H](O)[C@@H](O[C@@H]2[C@@H](O)[C@H](O[C@H]3O[C@H]([C@@H](C)O)[C@@H](O)[C@H](O)[C@H]3N)[C@@H](N)C[C@H]2N)OC[C@]1(C)O [G418, reference compound] = 0.0
• CN[C@@H]1[C@@H](O)[C@@H](O[C@@H]2[C@@H](O)[C@H](O[C@H]3O[C@H]([C@H](C)N)CC[C@H]3N)[C@@H](N)C[C@H]2N)OC[C@]1(C)O = 1.0
• CN[C@@H]1[C@@H](O)[C@@H](O[C@@H]2[C@@H](O)[C@H](O[C@H]3O[C@H](CO)[C@@H](O)[C@H](O)[C@H]3N)[C@@H](N)C[C@H]2N)OC[C@]1(C)O (stereo in doubt) = 0.0

Now consider a different molecule.
# check: tGFP-542X Maxfold < 4 for C[C@@H](O)C1O[C@H](O[C@@H]2C(N)C[C@@H](NC(=O)[C@@H](O)CCN)[C@@H](O)C2O[C@@H]2O[C@H](CN)[C@H](O)C2O)[C@@H](N)C(O)[C@@H]1O (some centres unmarked) [NB84, reference compound]
0.0
